- TARGET_OR_SYSTEM: M8
- PROTOCOL: ELISA on coated antigen, column M8
Each entry below lists one item and its recorded absorbance at 490 nm value.
// return a plain number; no unit text

BINDER | READOUT_LABEL | RECORDED_NUMBER
PDL1-31D9 (antibody, V domains shown, Only FR/CDR pieces are tied to the clone) VH: QMQLVESGGGLVQPGGSLRLSCSASGFTFSSYVMHWVRQAPGKGLEYVSAISSNGGSTYYADSVKGRFTISRDNSKNTLYLQMSSLRSEDTAVYYCAREHFSTYSYGVDVWGPGTTVTVSS VL: DIVMTQTPLSLPVTPGEPASISCRSSQSLLDSDDGNTYLDWYLQKPGQSPQLLIYMISFRASGVPDRFSGSGSGTDFTLKISRVEAEDSGIYYCMQRVEFPYTFGQGTKLEIK | absorbance at 490 nm | 1.8
PDL1-11A7 (antibody, V domains shown, Only FR/CDR pieces are tied to the clone) VH: QVQLVQSGAEVKKPGASVKVSCKVSGYTLTELSMHWVRQAPGKGLEWMGGFDPEDGETIYAQKFQGRVTMTEDTSTDTAYMELSSLRSEDTAVYYCARDPWGGYYGMDVWGQGTTVTVSS VL: DIQMTQSPSSVSASVGDRVTINCRASQGIRTWLAWYQQKPGKAPKLLIYAASNLQSGVPSRFSGSGSGTDFTLTIASLQPEDFATYYCQQANSFPLTFGGGTKVEIK | absorbance at 490 nm | 0.4

Please turn your attention to the following entry.
What does the data say about its absorbance at 490 nm? Entry: PDL1-27F8 (antibody, V domains shown, Only FR/CDR pieces are tied to the clone) VH: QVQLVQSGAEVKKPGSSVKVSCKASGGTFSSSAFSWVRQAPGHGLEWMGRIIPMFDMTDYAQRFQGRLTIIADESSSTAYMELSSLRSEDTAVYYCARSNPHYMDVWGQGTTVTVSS VL: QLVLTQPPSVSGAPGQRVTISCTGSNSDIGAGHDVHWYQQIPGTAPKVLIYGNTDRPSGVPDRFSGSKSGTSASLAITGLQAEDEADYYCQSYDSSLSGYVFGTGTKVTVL
2
